Test: FRG1 promoter luciferase signal modulators, primary screen, FRG1 inhibition for FSHD, cell-based, C2C12 myotubes, firefly/Renilla luciferase, luminescence (AID 1084)
Conditions: higher = more signal, called active from +8 up or from −8 down
The source made the active and inactive calls.
PARAMETER: z-score

Entry `C=C(COC)C(=O)CC[C@H](OC(=O)c1cccnc1)c1cccc(OCCO)c1` , z-score reported as 0.0417 (inactive)

Entry `CC(C)NC(=O)[C@@H]1c2ccccc2C(=O)N(Cc2cc(F)cc(C(F)(F)F)c2)[C@H]1c1ccc(CO)cc1` , z-score reported as 0.842 (inactive)

Entry `C=C(CCCC)/C(=C/C[C@@H](OC(=O)c1ccncc1)c1ccc(OCCO)cc1)c1cnc2ccccc2c1` , z-score reported as -0.723 (inactive)

Entry `O=C1c2ccccc2[C@](Cc2ccccc2I)(C(=O)O)[C@H](c2ccc(CO)cc2)N1Cc1ccccc1Cl` , z-score reported as 0.17 (inactive)

====

Provide the recorded composite z-score for the entries that follow.
Target: Albumin (Bos taurus) (UniProt P02769)
Sequence (P02769 whole entry, looked up): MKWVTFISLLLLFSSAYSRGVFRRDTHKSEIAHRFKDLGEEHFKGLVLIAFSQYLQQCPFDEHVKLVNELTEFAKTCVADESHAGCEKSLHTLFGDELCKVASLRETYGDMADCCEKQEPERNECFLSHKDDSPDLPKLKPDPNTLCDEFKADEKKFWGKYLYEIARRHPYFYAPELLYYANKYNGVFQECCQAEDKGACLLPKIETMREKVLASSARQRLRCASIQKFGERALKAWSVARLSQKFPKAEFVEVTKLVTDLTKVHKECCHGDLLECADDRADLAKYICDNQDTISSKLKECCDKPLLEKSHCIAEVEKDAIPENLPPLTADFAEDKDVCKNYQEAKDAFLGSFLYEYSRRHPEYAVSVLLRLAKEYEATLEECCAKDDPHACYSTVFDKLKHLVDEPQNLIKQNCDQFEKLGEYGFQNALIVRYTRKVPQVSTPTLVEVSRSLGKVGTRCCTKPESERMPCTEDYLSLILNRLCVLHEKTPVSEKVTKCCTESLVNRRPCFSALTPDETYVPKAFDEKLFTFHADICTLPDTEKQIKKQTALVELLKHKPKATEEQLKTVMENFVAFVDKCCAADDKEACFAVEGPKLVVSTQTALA
Test: bovine serum albumin binders on microarray, profiling panel, artefact control for SMM control protein annotation, biochemical, small-molecule microarray, Alexa647 label, 635/667 nm fluorescence (AID 1118);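 further: score merges 667 nm emission intensity and signal-to-noise per printed compound spot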
Settings: BSA-A647 binding, fluorescence 635 nm, higher = more signal
Lab note: record the figure alone, no unit after it.

Entry CC(CO)N1C(=O)[C@@H]2C3C(=O)OCCC/C=C\[C@H]3OC23C=CCN(Cc2ccccc2)C(=O)[C@@H]13 (some centres not stated) , composite z-score reported as -0.656

Entry `C#CCOc1ccc(C[C@H]2C(=O)O[C@H](Cc3ccccc3)[C@H](/C=C/C3CC3)N2CC#C)cc1` , composite z-score reported as -0.0855

Entry `C=C(/C(=C/C[C@H](OC(=O)c1ccncc1)c1cccc(OCCO)c1)c1cc(C(=O)OC)ccc1OC)C(C)C` , composite z-score reported as -0.768

Entry `CC(C)C[C@@H]1NC(=O)[C@H]2C[C@@H](C(=O)NCCCC[N+](C)(C)C)[C@@H](c3cccc(OCCO)c3)N2C1=O` , composite z-score reported as 0.252

Entry CC(C)N1CC=CC23O[C@@H]4/C=C\CCCOC(=O)C4[C@H]2C(=O)N(CCCO)[C@@H]3C1=O (some centres not stated) , composite z-score reported as -1.17

Entry `COCCOC(=O)N1C(=O)[C@@]2(c3cc(C#CCCO)ccc31)[C@H](c1ccccc1OCCO)N1[C@H](c3ccccc3)[C@H](c3ccccc3)OC(=O)[C@H]1[C@@H]2C(=O)NC[C@H](O)c1ccccc1` , composite z-score reported as 0.25

Entry `O=C1c2ccccc2C(=O)c2cc([C@H]3Oc4ccccc4S(=O)(=O)N4CCC[C@@H]34)ccc21` , composite z-score reported as -0.791

Entry `C[N+](C)(C)CCCCNC(=O)[C@@H]1C[C@@H]2C(=O)NCC(=O)N2[C@@H]1c1cccc(OCCO)c1` , composite z-score reported as -0.656

Entry `O=C1O[C@H](c2ccccc2)[C@H](c2ccccc2)N2[C@H]1[C@@H](C(=O)Nc1nc3ccccc3s1)[C@]1(C(=O)Nc3ccc(C#CCCO)cc31)[C@H]2c1ccccc1OCCO` , composite z-score reported as 0.596

Entry `CO[C@H]1O[C@H](CO)[C@@H](OC(=O)Nc2ccccc2)[C@H](OC(=O)Nc2ccc3c(c2)OCO3)[C@H]1OC(=O)Nc1ccc2c(c1)OCO2` , composite z-score reported as 0.06

Entry `COc1ccc([Si](C)(C)[C@@H]2[C@@H](CC(=O)N3CCC[C@H]3CO)O[C@]3(C(=O)N(Cc4ccc(N5CCC5=O)cc4)c4ccccc43)[C@H]2C)cc1` , composite z-score reported as -0.82

Entry `COCCOC(=O)N1C(=O)[C@@]2(c3ccccc31)[C@H](C(=O)Nc1nc3ccccc3s1)[C@H]1C(=O)O[C@H](c3ccccc3)[C@H](c3ccccc3)N1[C@@H]2c1ccc(O)cc1` , composite z-score reported as 0.794

Entry `COC(=O)c1c2oc(c1C(=O)OC)C(=O)N[C@@H](C(C)C)Cn1nncc1C1(CCCCC1)NC(=O)N[C@H](CO)CC2` , composite z-score reported as 0.543

Entry `CC(C)N1C(=O)c2ccccc2[C@@H](C(=O)NCc2ccccc2)[C@@H]1c1ccc(CO)cc1` , composite z-score reported as -2.18

Entry `C=CC[C@]1(C(=O)N2CCCCC2)COC(c2ccc(OCCCO)cc2)=N1` , composite z-score reported as 0.837

Entry `CCOC(=O)C[C@H]1[C@H](OC(=O)c2ccc(-c3ccccc3)cc2)[C@@H](NC(=O)c2ccccc2)c2cc(OCCCO)ccc2N1C(=O)c1ccccc1` , composite z-score reported as 0.842

Entry `NCCCCCCNC(=O)[C@@H]1C[C@@H]2C(=O)N[C@@H](Cc3ccccc3)C(=O)N2[C@@H]1c1ccc(O)cc1` , composite z-score reported as 0.676

Entry `O=c1n(-c2ccccc2)c(=O)n2n1CC(COc1ccccc1)=C1[C@@H](CCc3ccccc3)OB(O)C[C@@H]12` , composite z-score reported as 0.488

Entry `C/C=C/[C@@H](CCn1cc(CCO[Si](C(C)C)(C(C)C)C(C)C)nn1)[Si](C)(C)c1ccc(OC)cc1` , composite z-score reported as -1.72

Entry `COCCOC(=O)N1C(=O)[C@@]2(c3cc(C#CCNC(N)=O)ccc31)[C@H](c1ccccc1OCCO)N1[C@H](c3ccccc3)[C@H](c3ccccc3)OC(=O)[C@H]1[C@@H]2C(=O)Nc1nc2ccccc2s1` , composite z-score reported as 0.598

Entry `C=CC[C@]1(C(=O)N(C)C)N=C(c2ccc(OCCCO)cc2)O[C@H]1c1ccccc1CN=[N+]=[N-]` , composite z-score reported as 0.79

Entry `C=CCNC(=O)[C@@H]1[C@H]2C(=O)O[C@H](c3ccccc3)[C@H](c3ccccc3)N2[C@H](c2ccc(O)cc2)[C@@]12C(=O)Nc1ccc(C#Cc3ccc(OC)cc3)cc12` , composite z-score reported as 0.29

Entry `CCCNC(=O)[C@@H]1c2ccccc2C(=O)N(Cc2cc(C(F)(F)F)cc(C(F)(F)F)c2)[C@H]1c1ccc(CO)cc1` , composite z-score reported as -0.419

Entry `C=CCN1C(=O)[C@]2(O[C@H](CCn3cc([C@H](O)c4ccccc4)nn3)[C@@H]([Si](C)(C)c3ccc(OC)cc3)[C@@H]2C)c2cc(N3CCOC3=O)ccc21` , composite z-score reported as 0.318

Entry `C=CCN1C(=O)[C@@]2(O[C@@H](CCO)[C@H]([Si](C)(C)c3ccc(OC)cc3)[C@H]2C)c2cc(N3C(=O)c4cccc5cccc3c45)ccc21` , composite z-score reported as 0.691

Entry `C=C(C1=CCN(S(=O)(=O)c2ccc(C)cc2)C1)[C@@H](OC(C)=O)[C@@H]1CCCN1S(=O)(=O)c1ccccc1[N+](=O)[O-]` , composite z-score reported as -1.41

Entry `CC(C)(C)OC(=O)CC[C@@]12N=C(c3ccc(OCCCO)cc3)O[C@@H]1c1ccccc1N(Cc1ccccc1)C2=O` , composite z-score reported as 0.0674
